# Target Of Assay: T1, APC (303-739) (UniProt P25054 303-739)
# T1 construct: adenomatous polyposis coli (APC), residues 303-739; pET28a construct; also called APC WT; adenomatous polyposis coli; source: E. coli BL21 (DE3), purified (Ni-NTA)
# T1 sequence (looked up): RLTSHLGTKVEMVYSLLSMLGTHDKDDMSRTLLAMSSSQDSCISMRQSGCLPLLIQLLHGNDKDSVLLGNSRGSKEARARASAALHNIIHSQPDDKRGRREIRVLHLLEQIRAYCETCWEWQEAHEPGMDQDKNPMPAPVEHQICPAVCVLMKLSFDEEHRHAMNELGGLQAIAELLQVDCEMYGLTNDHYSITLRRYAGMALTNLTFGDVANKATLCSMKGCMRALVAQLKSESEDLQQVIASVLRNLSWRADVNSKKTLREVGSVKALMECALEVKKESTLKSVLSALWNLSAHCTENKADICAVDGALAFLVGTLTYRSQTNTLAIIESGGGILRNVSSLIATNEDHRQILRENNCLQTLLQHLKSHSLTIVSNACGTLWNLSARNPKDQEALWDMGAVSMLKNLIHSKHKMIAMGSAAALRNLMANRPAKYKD
# Test Details: fluorescence polarisation; competition with tracer 7: 25 nM APC (303-739), serial dilution of peptide, 20 nM tracer 7; 50 mM HEPES pH 7.5, 300 mM NaCl, 1 mM EDTA, 1 mM DTT; room temperature
# Experimental Setup: both partners purified
[ ]: non-standard residue; d: D form. The star is where a group is joined. Bpa = N[C@@H](Cc1ccc(C(=O)c2ccccc2)cc1)C(=O)O; Bz = O=C(c1ccccc1)*
Could you mark each record Fulfilled if its IC50 falls strictly under 300 nM, and Not fulfilled if it equals or exceeds it?

>  <Binder>
{2‑chloropyrimidine‑4‑carbonyl}-AGESLYE-NH2 [MAI-459]

>  <Classification>
Not fulfilled

$$$$

[ask] Input {benzofuran‑2‑carbonyl}-AGESLYE-NH2 [MAI-453] ; condition: IC50 strictly below 300 nM. Does it hold?
[reply] Fulfilled

[ask] // same read-out, input: {morpholine‑4‑carbonyl}-AGESLYE-NH2 [MAI-451]
[reply] Fulfilled

[ask] Then what about the binder {oxazole‑2‑carbonyl}-AGESLYE-NH2 [MAI-455] ?
[reply] Not fulfilled

[ask] Again, but for Bz-AGESLYE-NH2 [MAI-467]
[reply] Not fulfilled

[ask] Now consider Bz-AGESLY[Bpa]-NH2 (SMILES CC(C)C[C@H](NC(=O)[C@H](CO)NC(=O)[C@H](CCC(=O)O)NC(=O)CNC(=O)[C@H](C)NC(=O)c1ccccc1)C(=O)N[C@@H](Cc1ccc(O)cc1)C(=O)N[C@@H](Cc1ccc(C(=O)c2ccccc2)cc1)C(N)=O) [MAI-457] and answer again.
[reply] Fulfilled

[ask] Now consider {2‑(methylthio)pyrimidine‑4‑carbonyl}-AGESLYE-NH2 [MAI-456] .
[reply] Not fulfilled

[ask] Continue with {oxazole‑5‑carbonyl}-AGESLYE-NH2 [MAI-460]
[reply] Not fulfilled

[ask] For {pyrimidine‑4‑carbonyl}-AGESLYE-NH2 [MAI-464] then?
[reply] Fulfilled

[ask] Then this binder: Bz-AGESLY[dE]-NH2 [MAI-465]
[reply] Not fulfilled
